- Test system: ZR-75-1
- protocolText: Cytotoxicity against human ZR751cells by SRB microtiter plate assay
- Assay type: functional, cell-based
- conditionDescription: zr-75-1
pIC50: −log10 of the molar value.

smilesText: COc1ccc2c(CN3CCCC[C@H]3CO)cc3cc4c(cc3c2c1)OCO4
testSystem: ZR-75-1
pIC50: 7.10
--
smilesText: COc1ccc2c(CN3CCC(CCO)CC3)cc3cc4c(cc3c2c1)OCO4
testSystem: ZR-75-1
pIC50: 7.52
--
smilesText: COc1ccc2c(CN3CCC(CO)CC3)cc3cc4c(cc3c2c1)OCO4
testSystem: ZR-75-1
pIC50: 7.52
--
smilesText: COc1ccc2c(CNCCCCCCO)cc3cc4c(cc3c2c1)OCO4
testSystem: ZR-75-1
pIC50: 6.89
